- system.under.test: HLA-A*0301 (human)
- assay.remarks: competition vs 125I probe, purified HLA
- measurement.setup: remark: other sources report otherwise
pIC50: −log10 of the molar value.
Lab note: compare pIC50 against 7. Equal or greater, write Criterion met. Smaller, write Criterion not met.

1) KVYQGSYGFK [p53.101.V2K10] = Criterion met
2) GVRVRAMAIYK [p53.154.V2] = Criterion met
3) KVYQGSYGFR [p53.101.V2] = Criterion met
4) FSTTINYTLWR [MAGE2.71] = Criterion not met
5) GTRVRAMAIYK [p53.154] = Criterion met
6) YVFPVIFSR [MAGE3.138.V2R9] = Criterion met
7) RVCACPGR [p53.273 (8-mer)] = Criterion met
8) SSCMGGMNR [p53.240 (9-mer)] = Criterion not met
9) SVSRHKKLMFK [p53.375.V2] = Criterion met
10) LLGDNQIMPK [MAGE3.189] = Criterion not met
11) KMFCQLAK [p53.132] = Criterion met
12) YFFPVIFSK [MAGE3.138] = Criterion not met
